Hey, just so you know, these numbers are from patent US11319322B2.

Target: KIF5B-RET-BaF3 (Homo sapiens)
Construct: fused on or other part: P33176 (Kinesin-1 heavy chain)
Sequence (P07949 whole entry, change not shown, the tested form may be a part): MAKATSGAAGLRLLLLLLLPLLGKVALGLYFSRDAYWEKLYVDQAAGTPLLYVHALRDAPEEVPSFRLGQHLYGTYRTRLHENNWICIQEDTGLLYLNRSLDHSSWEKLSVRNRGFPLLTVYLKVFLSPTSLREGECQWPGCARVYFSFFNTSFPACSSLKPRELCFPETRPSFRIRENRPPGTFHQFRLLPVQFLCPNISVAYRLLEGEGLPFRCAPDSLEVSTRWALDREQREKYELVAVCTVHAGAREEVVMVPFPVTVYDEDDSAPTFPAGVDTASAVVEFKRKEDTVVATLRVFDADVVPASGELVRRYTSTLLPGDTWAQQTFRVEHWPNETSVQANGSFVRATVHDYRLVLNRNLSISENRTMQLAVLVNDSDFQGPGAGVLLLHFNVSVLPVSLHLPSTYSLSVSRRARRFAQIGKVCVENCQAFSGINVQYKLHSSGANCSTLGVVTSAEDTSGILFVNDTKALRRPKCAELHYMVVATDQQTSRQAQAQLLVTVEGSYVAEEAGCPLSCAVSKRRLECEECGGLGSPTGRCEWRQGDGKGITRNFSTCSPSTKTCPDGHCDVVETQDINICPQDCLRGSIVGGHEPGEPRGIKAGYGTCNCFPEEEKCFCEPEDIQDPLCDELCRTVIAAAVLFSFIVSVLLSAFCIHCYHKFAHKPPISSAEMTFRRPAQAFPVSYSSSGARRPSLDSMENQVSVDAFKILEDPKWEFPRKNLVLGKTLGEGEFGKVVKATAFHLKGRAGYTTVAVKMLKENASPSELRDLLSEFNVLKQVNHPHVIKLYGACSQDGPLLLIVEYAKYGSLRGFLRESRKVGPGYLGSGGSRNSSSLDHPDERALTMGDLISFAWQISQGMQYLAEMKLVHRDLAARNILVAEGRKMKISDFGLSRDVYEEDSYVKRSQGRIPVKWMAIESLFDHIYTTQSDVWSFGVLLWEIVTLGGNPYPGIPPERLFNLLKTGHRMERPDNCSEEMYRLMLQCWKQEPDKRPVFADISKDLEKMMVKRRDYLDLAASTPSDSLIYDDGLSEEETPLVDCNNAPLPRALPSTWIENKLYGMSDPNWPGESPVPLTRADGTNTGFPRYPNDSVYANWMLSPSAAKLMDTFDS
Assay: Growth inhibition of KIF5B-RET-BaF3 cells stably transfected with kinase (MTS)
Format: cell-based
Conditions: 48 h, read-out: KIF5B-RET (IC50/nM)
Classify: y when GI50 is strictly less than 600 nM; n when GI50 is not.

stdin: In plain terms, does Cc1ccc(Oc2nc(-c3cccnc3)nc3ccn(C)c23)cc1NC(=O)c1ccc(CN2CCN(C)CC2)c(C(F)(F)F)c1 [III-j-5] come in under 600 nM for GI50?
stdout: n

stdin: Same read-out for CN1CCN(Cc2ccc(C(=O)Nc3cc(Oc4nc(-c5ccc(N)cc5)nc5cc[nH]c45)ccc3Cl)cc2C(F)(F)F)CC1 [III-k-11] ?
stdout: y

stdin: Next molecule up: CN1CCN(Cc2ccc(NC(=O)c3cc(Oc4nc(-c5ccncc5)nc5c4cnn5C)ccc3Cl)cc2C(F)(F)F)CC1 [II-o-2]
stdout: y

stdin: Follow-up item: Cc1ccc(Oc2nc(-c3ccccc3)nc3cc[nH]c23)cc1NC(=O)c1ccc(CN2CCN(C)CC2)c(C(F)(F)F)c1 [III-j-3]
stdout: n

stdin: Could you do the same for Cc1ccc(Oc2nc(-c3ccsc3)nc3nn(C)cc23)cc1C(=O)Nc1ccc(CN2CCN(C)CC2)c(C(F)(F)F)c1 [IV-n-11] , please?
stdout: n

Kindly review the next molecule as well.
stdin: Field: below-cutoff. Rule: recorded GI50 strictly less than 600 nM. Subject: Cc1ccc(Oc2nc(-c3cccnc3)nc3cc[nH]c23)cc1NC(=O)c1ccc(CN2CCN(C)CC2)c(C(F)(F)F)c1 [III-j-1]
stdout: n

----------
Target: KIF5B-RET-BaF3 (Homo sapiens)
Construct: fused on or other part: P33176 (Kinesin-1 heavy chain)
Assay: Growth inhibition of KIF5B-RET-BaF3 cells stably transfected with kinase (MTS)
Type: cell-based
Conditions: 48 h, read-out: KIF5B-RET (IC50/nM)
Value Type: GI50 (nM)
Kindly answer with a numeric value in nM, unit omitted.

Solved entries:
stdin: Can you look up the measured GI50 of Cc1ccc(Oc2nc(-c3ccncc3)nc3c2ncn3C(C)C)cc1C(=O)Nc1ccc(CN2CCN(C)CC2)c(C(F)(F)F)c1 for me?
stdout: 47

stdin: What would you report for Cc1ccc(C(=O)Nc2ccc(CN3CCN(C)CC3)c(C(F)(F)F)c2)cc1Oc1nc(N2CCOCC2)nc2ccn(C)c12 ?
stdout: 2500

stdin: Quick one: Cc1ccc(Oc2nc(-c3ccncc3)nc3cc[nH]c23)cc1C(=O)Nc1ccc(CN2CCN(C)CC2)c(C(F)(F)F)c1
stdout: 21

stdin: And the next one, COc1cc2nccc(Oc3ccc(NC(=O)C4(C(=O)Nc5ccc(F)cc5)CC4)cc3)c2cc1OC [Cabozantinib] ?
stdout: 302

Next:
stdin: Can you look up the measured GI50 of Cc1ccc(C(=O)Nc2ccc(CN3CCN(C)CC3)c(C(F)(F)F)c2)cc1Oc1ncnc2c1cnn2C for me?
stdout: 124

stdin: Try CN1CCN(Cc2ccc(C(=O)Nc3cccc(Oc4nc(-c5cccnc5)nc5ccn(C)c45)c3)cc2C(F)(F)F)CC1 next.
stdout: 2140

stdin: Now the same for CN1CCN(Cc2ccc(NC(=O)c3cc(Oc4nc(-c5ccccc5)nc5nn(C)cc45)ccc3Cl)cc2C(F)(F)F)CC1
stdout: 4180
